# protocol: Metabolic stability test: liver microsomal stability assay
# Assay type: in vitro ADME, mouse
# reported-conditions: mouse liver microsomes 0.5 mg protein/mL, compound 1 µM, absence of NADPH
Starred links: 1 amine or outer side, 2 acyl side, 3 side chain; linkers in the order of their positions; H or OH if unused. Positions of bridges follow the written chain, without caps; N, C: chain ends. Non-standard residues stand in square brackets, D forms with d. Residues, ends and D or L forms follow the SMILES beside them. *: point of attachment. NMedβ3hAla = C[C@H](CC(=O)[*:2])N(C)[*:1]; NMeF = CN[C@@H](Cc1ccccc1)C(=O)O; NMeβAla = CN(CCC(=O)[*:2])[*:1]; NMeD = CN[C@@H](CC(=O)O)C(=O)O; NMeL = CN[C@@H](CC(C)C)C(=O)O; NMeV = CN[C@H](C(=O)O)C(C)C; NMeAbu = CC[C@H](NC)C(=O)O; NMeA = CN[C@@H](C)C(=O)O; Piperidide = C1CCN(*)CC1; Abu = CC[C@H](N)C(=O)O; Sar = CNCC(=O)O; tBu = CC(C)(C)*
recorded-endpoint: Mouse Hepatic Microsome CLh,int NADPH(-) (µL/min/mg Protein)
Just the number in µL/min/mg Protein, nothing appended.

Study these solved cases before continuing.
CC(C)C[C@@H]1NC(=O)[C@@H]2CCCN2C(=O)[C@H](C(C)C)N(C)C(=O)[C@H](C)NC(=O)[C@H](CC(C)C)N(C)C(=O)[C@@H](C(C)C)NC(=O)C[C@@H](C(=O)N2CCCCC2)NC(=O)[C@H](C(C)C)N(C)C(=O)[C@H](Cc2ccccc2)N(C)C(=O)[C@H](CC(C)C)NC(=O)[C@H](COC(C)(C)C)NC(=O)[C@H](CC(C)C)N(C)C(=O)CN(C)C1=O [pd097] ([dV][NMeL]A[NMeV]PL[Sar][NMeL]S(tBu)L[NMeF][NMeV]D-Piperidide; lactam N-13) ... 18.8
CC[C@@H]1NC(=O)[C@@H]2CCCN2C(=O)[C@H](CC(C)C)N(C)C(=O)[C@H](C(C)C)NC(=O)[C@H](CC(C)C)N(C)C(=O)[C@H]([C@@H](C)O)NC(=O)[C@H](Cc2ccccc2)N(C)C(=O)CN(C)C(=O)C[C@@H](C)N(C)C(=O)[C@H](C(C)C)NC(=O)[C@H](COC(C)(C)C)NC(=O)[C@H](C)N(C)C(=O)[C@H](CC(C)C)NC(=O)[C@H](Cc2ccccc2)N(C)C1=O [pd067] (cyclo([Abu][NMeF]L[NMeA]S(tBu)V[NMedβ3hAla][Sar][NMeF]T[NMeL]V[NMeL]P)) ... 10.8
CC[C@@H]1NC(=O)[C@H](Cc2ccccc2)N(C)C(=O)[C@H]([C@@H](C)CC)NC(=O)[C@H](CC(C)C)N(C)C(=O)[C@H](CC(C)C)NC(=O)CCN(C)C(=O)C[C@@H](C(=O)N2CCCCC2)NC(=O)[C@H](CC(C)C)N(C)C(=O)[C@H](C)N(C)C(=O)[C@H]([C@@H](C)O)NC(=O)[C@H](CC(C)C)N(C)C(=O)[C@H](C(C)C)NC(=O)[C@H](Cc2ccccc2)N(C)C1=O [pd101] ([NMeβAla]L[NMeL]I[NMeF][Abu][NMeF]V[NMeL]T[NMeA][NMeL]D-Piperidide; lactam N-13) ... 31.5

Next compound, Mouse Hepatic Microsome CLh,int NADPH(-) to be filled in.
Exercise: I'd like to know its Mouse Hepatic Microsome CLh,int NADPH(-). The compound in question is CC[C@H](C)[C@@H]1NC(=O)[C@H](CC(C)C)N(C)C(=O)CN(C)C(=O)C[C@@H](C(=O)N2CCCCC2)N(C)C(=O)CNC(=O)[C@H](C)N(C)C(=O)[C@H](CC)N(C)C(=O)[C@H](C(C)C)N(C)C(=O)[C@H](C)N(C)C(=O)[C@H](Cc2ccccc2)N(C)C(=O)[C@H](CC(C)C)NC(=O)[C@H](Cc2ccccc2)N(C)C(=O)[C@H](C(C)C)NC(=O)[C@H](CC(C)C)N(C)C1=O [pd085] ([Sar][NMeL]I[NMeL]V[NMeF]L[NMeF][NMeA][NMeV][NMeAbu][NMeA]G[NMeD]-Piperidide; lactam N-14)
Solution: 28.9

---

# Tested on: Caco-2 cells
# protocol: Membrane permeability test using Caco-2 cells with preincubation
# Assay type: in vitro ADME
# reported-conditions: Caco-2 cells, preincubation 20 to 24 hours; apical FaSSIF/HBSS 1% DMSO pH 6.0, basal HBSS 4% BSA pH 7.4; basal sample at 180 minutes
Positions of bridges follow the written chain, without caps; N, C: chain ends. Non-standard residues stand in square brackets, D forms with d. Residues, ends and D or L forms follow the SMILES beside them. *: point of attachment. NMeF = CN[C@@H](Cc1ccccc1)C(=O)O; NMeL = CN[C@@H](CC(C)C)C(=O)O; NMeV = CN[C@H](C(=O)O)C(C)C; Piperidide = C1CCN(*)CC1; Abu = CC[C@H](N)C(=O)O; Sar = CNCC(=O)O; tBu = CC(C)(C)*
recorded-endpoint: Caco2 Papp (10^-6 cm/sec)

Exercise: Recorded Caco2 Papp (10^-6 cm/sec) for CC[C@@H]1NC(=O)[C@H](C(C)C)N(C)C(=O)[C@H](CC(C)C)NC(=O)[C@H](CC(C)C)N(C)C(=O)[C@H]([C@@H](C)O)NC(=O)CN(C)C(=O)[C@H]([C@@H](C)CC)NC(=O)[C@H](Cc2ccccc2)N(C)C(=O)[C@H](CC(C)C)N(C)C(=O)C[C@@H](C(=O)N2CCCCC2)NC(=O)[C@H](Cc2ccccc2)N(C)C(=O)[C@H](COC(C)(C)C)NC(=O)[C@@H]2CCCN2C1=O [pd106] ([NMeL][NMeF]I[Sar]T[NMeL]L[NMeV][Abu]PS(tBu)[NMeF]D-Piperidide; lactam N-13) with Caco-2 cells, please?
Solution: 0.24 10^-6 cm/sec

---

# protocol: Metabolic stability test: liver microsomal stability assay
# Format: in vitro ADME, mouse
# reported-conditions: mouse liver microsomes 0.5 mg protein/mL, compound 1 µM, absence of NADPH
Starred links: 1 amine or outer side, 2 acyl side, 3 side chain; linkers in the order of their positions; H or OH if unused. Positions of bridges follow the written chain, without caps; N, C: chain ends. Non-standard residues stand in square brackets, D forms with d. Residues, ends and D or L forms follow the SMILES beside them. *: point of attachment. NMedβ3hAla = C[C@H](CC(=O)[*:2])N(C)[*:1]; NMeF = CN[C@@H](Cc1ccccc1)C(=O)O; NMeI = CC[C@H](C)[C@H](NC)C(=O)O; hPhe = N[C@@H](CCc1ccccc1)C(=O)O; NMeβAla = CN(CCC(=O)[*:2])[*:1]; NMeD = CN[C@@H](CC(=O)O)C(=O)O; NMeL = CN[C@@H](CC(C)C)C(=O)O; NMeV = CN[C@H](C(=O)O)C(C)C; NMeA = CN[C@@H](C)C(=O)O; Piperidide = C1CCN(*)CC1; Abu = CC[C@H](N)C(=O)O; Sar = CNCC(=O)O; tBu = CC(C)(C)*
recorded-endpoint: Mouse Hepatic Microsome CLh,int NADPH(-) (µL/min/mg Protein)
Just the number in µL/min/mg Protein, nothing appended.

CC[C@@H]1NC(=O)[C@H](CC(C)C)N(C)C(=O)[C@H](COC(C)(C)C)NC(=O)[C@H]([C@@H](C)CC)N(C)C(=O)[C@H](CCc2ccccc2)NC(=O)[C@H](Cc2ccccc2)N(C)C(=O)[C@H](C(C)C)NC(=O)[C@H](CC(C)C)N(C)C(=O)[C@H](CC(C)C)NC(=O)CCN(C)C(=O)C[C@@H](C)N(C)C(=O)CN(C)C(=O)[C@H](CC(C)C)N(C)C(=O)[C@@H]2CCCN2C1=O [pd065] (cyclo([Abu]P[NMeL][Sar][NMedβ3hAla][NMeβAla]L[NMeL]V[NMeF][hPhe][NMeI]S(tBu)[NMeL])) ... 40.2

Next molecule, Mouse Hepatic Microsome CLh,int NADPH(-) to be filled in.
Exercise: I'd like to know its Mouse Hepatic Microsome CLh,int NADPH(-). The molecule in question is CC[C@H](C)[C@H]1C(=O)NCC(=O)N(C)[C@@H](CC(C)C)C(=O)N(C)[C@@H](C(C)C)C(=O)N(C)[C@@H](C)C(=O)N(C)[C@H](C(=O)N2CCCCC2)CC(=O)N(C)[C@@H](C)C(=O)N[C@@H](CC(C)C)C(=O)N(C)[C@@H](CC(C)C)C(=O)N[C@@H](COC(C)(C)C)C(=O)N(C)[C@@H](Cc2ccccc2)C(=O)N[C@@H](C)C(=O)N(C)[C@@H](Cc2ccccc2)C(=O)N1C [pd155] ([NMeA]L[NMeL]S(tBu)[NMeF]A[NMeF][NMeI]G[NMeL][NMeV][NMeA][NMeD]-Piperidide; lactam N-13)
Solution: 37.2
